tested on: soybean; experiment: Test C pre-/postemergence herbicide test; assay type: in vivo, Glycine max; details: Postemergence, 125 g ai/ha; scale 0 to 100 (0 no effect, 100 complete control)
The following compounds are listed with their measured Plant response rating, Soybean values.
Reply with the value as a number alone.

Example entries begin here.
{"compound": "O=C1NCC(c2cccc(C(F)(F)F)c2)C1C(=O)Nc1ccc(F)cc1F (racemic) [Compound 207]", "Plant response rating, Soybean": 5}
{"compound": "O=C1NCC(c2ccc(F)cc2)C1C(=O)Nc1cccc(F)c1F (racemic) [Compound 119]", "Plant response rating, Soybean": 0}
{"compound": "O=C1NCC(c2cccc(C(F)(F)F)c2)C1C(=O)Nc1ccc(F)c(F)c1F (stereo not shown) [Compound 315]", "Plant response rating, Soybean": 0}

// next entry
Query: Dear colleague, I am looking for the recorded Plant response rating, Soybean of the following compound: O=C1NCC(c2cccc(C(F)(F)F)c2)C1C(=O)Nc1ccccc1Cl (stereo not shown) [Compound 312]
Result: 0
